Tested on: Echinochloa crus-galli (ECHCG)
Assay: Pre-emergence herbicidal glasshouse test, Echinochloa crus-galli (ECHCG)
Type: in vivo
Conditions: 500 g/h, evaluated after 13 days
observable: PRE Application ECHCG, percentage damage (five point scale)

Documented PRE Application ECHCG, percentage damage (five point scale) of Cc1nnc(NC(=O)c2ccc(C(F)(F)F)c(N=CN(C)c3ccccc3)c2Cl)o1 : 5 (5=80-100%)

Documented PRE Application ECHCG, percentage damage (five point scale) of Cc1c(C(=O)Nc2nnnn2C)ccc(S(C)(=O)=O)c1N=CN(C)C(C)C : 5 (5=80-100%)

Documented PRE Application ECHCG, percentage damage (five point scale) of Cc1nnc(NC(=O)c2ccc(C(F)(F)F)c(/N=C/N(C)C)c2Cl)o1 : 5 (5=80-100%)

Documented PRE Application ECHCG, percentage damage (five point scale) of Cc1nnc(NC(=O)c2ccc(S(C)(=O)=O)c(N=CN(C)C(C)C)c2C)o1 : 5 (5=80-100%)

Documented PRE Application ECHCG, percentage damage (five point scale) of CC(=Nc1c(C(F)(F)F)ccc(C(=O)Nc2nnnn2C)c1Cl)N(C)C : 5 (5=80-100%)

Documented PRE Application ECHCG, percentage damage (five point scale) of CON=C(C)N(C)Cc1c(S(C)(=O)=O)ccc(C(=O)Nc2nnnn2C)c1Cl : 5 (5=80-100%)

Documented PRE Application ECHCG, percentage damage (five point scale) of Cc1nnc(NC(=O)c2ccc(C(F)(F)F)c(N=CN(C)C(C)C)c2Cl)o1 : 5 (5=80-100%)

Documented PRE Application ECHCG, percentage damage (five point scale) of CCN(C=Nc1c(C(F)(F)F)ccc(C(=O)Nc2nnnn2C)c1Cl)CC : 5 (5=80-100%)

Origin of the recorded values: patent US11272709B2
